src = patent US20040048790A1

# SYSTEM NAME: HLA-A*0203 (human)
# EXPERIMENT: 125I-probe peptide inhibition, purified HLA
Non-standard residues stand in square brackets, D forms with d. No end group written: not given here. Abu = CC[C@H](N)C(=O)O
ENDPOINT LABEL: IC50 (nM)
The reply should contain only the number, in nM.

Request: What value of IC50 has been reported for the following binder? [Abu]LLAKT[Abu]PV [p53.135B1L2B7]
Response: 7.7
